# Test system: MRSA COL (MB5393)
# experiment-description: TarO Inhibitor/β-Lactam Synergy Assay
# Assay type: cell-based, Staphylococcus aureus
# conditions: Staphylococcus aureus, TarO inhibitor alone, 20 hours, OD600, 95% growth inhibition, read-out: MITC95 TarO inhibitor alone, Bacteria: SA_MB5393

[
  {
    "molecule": "CCCOC(=O)N1CC(c2nc3ccccc3n2CCC(=O)N(CC)C2CCCCC2)CCC1C (stereo not shown)",
    "bound-operator": "=",
    "IC95, µM": 100
  },
  {
    "molecule": "CCOC(=O)N1CCCC(c2nc3ccc(F)cc3n2CCC(=O)N(CC)C2CCCCC2)C1 (stereo not shown)",
    "bound-operator": ">",
    "IC95, µM": 200
  },
  {
    "molecule": "CCN(C(=O)CCn1c(C2CCCCC2)cc2ccccc21)C1CCCCC1",
    "bound-operator": ">",
    "IC95, µM": 200
  },
  {
    "molecule": "CCc1nsc(N2CCCC(c3nc4ccccc4n3CCC(=O)N(CC)C3CCCCC3)C2)n1 (stereo not shown)",
    "bound-operator": "=",
    "IC95, µM": 100
  }
]
